Target: CDK8/Cyclin C (Homo sapiens)
Sequence (P49336 whole entry): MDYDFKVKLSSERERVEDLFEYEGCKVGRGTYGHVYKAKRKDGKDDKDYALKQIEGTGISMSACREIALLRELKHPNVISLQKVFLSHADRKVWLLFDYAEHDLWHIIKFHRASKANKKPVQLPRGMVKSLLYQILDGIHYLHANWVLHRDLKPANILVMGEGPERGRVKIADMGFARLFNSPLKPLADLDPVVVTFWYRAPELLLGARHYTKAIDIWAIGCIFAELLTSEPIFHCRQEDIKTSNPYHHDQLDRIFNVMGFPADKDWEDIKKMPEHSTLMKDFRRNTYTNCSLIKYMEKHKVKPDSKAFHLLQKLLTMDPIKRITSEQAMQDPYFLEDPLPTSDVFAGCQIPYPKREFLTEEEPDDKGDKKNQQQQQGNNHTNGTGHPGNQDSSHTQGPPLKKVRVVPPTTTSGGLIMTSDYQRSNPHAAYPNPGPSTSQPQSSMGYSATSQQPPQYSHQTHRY
Sequence (P24863 whole entry partner): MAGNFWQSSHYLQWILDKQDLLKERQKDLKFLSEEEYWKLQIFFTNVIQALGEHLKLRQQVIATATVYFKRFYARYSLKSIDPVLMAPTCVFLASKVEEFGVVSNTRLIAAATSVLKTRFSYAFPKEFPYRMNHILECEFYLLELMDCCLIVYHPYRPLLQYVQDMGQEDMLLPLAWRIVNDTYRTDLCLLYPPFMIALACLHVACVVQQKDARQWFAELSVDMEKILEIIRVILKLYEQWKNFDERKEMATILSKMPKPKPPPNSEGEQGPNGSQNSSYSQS
Assay: NanoBRET live-cell target engagement, NanoLuc-CDK8/Cyclin C in HEK-293
Type: binding
Details: IC50 (nM), CDK8/C; experiment 3
assay.metric: IC50 (nM)
The figure you give is taken to be in nM; do not add the unit.

Cn1cc(-c2ccc(-c3cncc(Cl)c3N3CCC4(CCNC4=O)CC3)cc2)cn1 [CCT251545]	9

Proceeding to the next compound to report its IC50.
For record COC1CN(C(=O)c2ccc3c(N)ncc(-c4ccc(-c5cnn(C)c5)cc4)c3n2)C1 [CCT251545 analog] the listed IC50 is 12

====

# Inhibition at 10µM (%) Replicate 2 per entry
Biological target: CDK15/Cyclin Y (Homo sapiens, UniProt Q96Q40)
Sequence (Q96Q40 whole entry): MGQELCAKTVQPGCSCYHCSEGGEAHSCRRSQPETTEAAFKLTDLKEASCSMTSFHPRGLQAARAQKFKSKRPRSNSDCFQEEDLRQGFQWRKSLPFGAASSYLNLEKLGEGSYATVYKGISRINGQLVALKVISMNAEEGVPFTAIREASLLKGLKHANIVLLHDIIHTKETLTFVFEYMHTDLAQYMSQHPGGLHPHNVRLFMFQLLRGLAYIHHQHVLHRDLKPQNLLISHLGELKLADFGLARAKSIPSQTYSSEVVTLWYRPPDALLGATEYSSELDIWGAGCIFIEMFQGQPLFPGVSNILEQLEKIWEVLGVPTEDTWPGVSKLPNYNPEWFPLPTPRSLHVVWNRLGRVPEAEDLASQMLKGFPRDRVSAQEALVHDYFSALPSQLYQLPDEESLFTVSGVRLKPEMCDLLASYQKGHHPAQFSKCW
Sequence (Q8ND76 whole entry partner): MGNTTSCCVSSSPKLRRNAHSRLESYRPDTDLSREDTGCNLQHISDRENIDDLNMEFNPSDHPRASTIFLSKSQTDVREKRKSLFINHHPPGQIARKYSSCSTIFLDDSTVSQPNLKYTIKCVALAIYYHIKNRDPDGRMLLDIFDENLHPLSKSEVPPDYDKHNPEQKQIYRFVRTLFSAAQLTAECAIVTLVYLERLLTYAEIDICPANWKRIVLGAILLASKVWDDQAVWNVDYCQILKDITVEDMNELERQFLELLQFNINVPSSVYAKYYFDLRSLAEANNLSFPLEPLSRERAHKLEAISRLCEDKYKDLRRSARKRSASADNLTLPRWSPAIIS
Experiment: NanoBRET live-cell target engagement, NanoLuc-CDK15/Cyclin Y in HEK-293
Type: binding
Settings: CDK15/Y; 10µM
The figure you give is taken to be in %; do not add the unit.

O=C(Nc1c[nH]nc1-c1ccccn1)c1nn(C2CCNCC2)cc1Cl [BDP5290]	6.5
CNC1CCN(C(=O)c2ccc(Nc3ncc(F)c(-c4cnc(C)n4C(C)C)n3)cc2)C1 (stereo not shown) [AZD5597]	95.6
CCC(CO)Nc1nc(Nc2cccc(-c3ccccn3)c2)c2ncn(C(C)C)c2n1.Cl.O [(R) - DRF053]	29.8

For record CC(C)c1cnn2c(NCc3ccccc3)cc(N[C@@H](CO)[C@H](O)CO)nc12 [BS-194] the listed Inhibition at 10µM (%) Replicate 2 is 84.3

Each recorded value in this set is attributed to paper PMC7265341.
